System: 699152-130-R-J1-PDC complex spheroid viability
Assay: Anticancer human tumor 699152-130-R-J1-PDC patient-derived pancreatic carcinoma cell line growth inhibition [POLQ]
Details: curve of first compound; second compound 0.0316 µM
pIC50: −log10 of the molar value.
measured endpoint: pIC50

Any idea what its pIC50 is? The compound is CCc1cc2c(N3CCc4c(cc(Cn5ccnc5)cc4-c4cn(C)nc4C(F)(F)F)C3=O)ccnc2c(OC)n1 + Nc1ccc(C#CCN(C(=O)Cc2ncc(C(F)(F)F)cc2C(F)(F)F)c2ccc(F)cc2)nn1
< 5.00

Any idea what its pIC50 is? The compound is C=CC(=O)N1CCN(c2nc(=O)n(-c3c(C)ccnc3C(C)C)c3nc(-c4c(O)cccc4F)c(F)cc23)C(C)C1 (centres undefined) + Cc1cccc(N(C)C(=O)C2C(O)CCN2c2nc(C)cc(C(F)(F)F)c2C#N)c1
< 5.00

Any idea what its pIC50 is? The compound is COc1cc(C2c3cc4c(cc3C(OC3OC5COC(C)OC5C(O)C3O)C3COC(=O)C23)OCO4)cc(OC)c1O (centres undefined) + Cc1cccc(N(C)C(=O)C2C(O)CCN2c2nc(C)cc(C(F)(F)F)c2C#N)c1
5.17

Any idea what its pIC50 is? The compound is O=c1[nH]cc(F)c(=O)[nH]1 + Cc1cccc(N(C)C(=O)C2C(O)CCN2c2nc(C)cc(C(F)(F)F)c2C#N)c1
< 5.00

---

System: 699152-130-R-J1-PDC complex spheroid viability
Assay: Anticancer human tumor 699152-130-R-J1-PDC cell line growth inhibition [POLQ];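 also: spheroids exposed to agents for 7 days before viability reading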;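 as to viability, T/C: percent of DMSO vehicle control viability so 100% = vehicle and 0% = no viable signal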
Conditions: second compound 3.16 µM; first compound 0.1 µM; stronger effect = lower value
Procedure: Multicellular complex tumor spheroid response to Polymerase (POL) inhibitors (novobiocin, ART-558, RP6685) in combination with a variety of drugs and investigational agents in selected tumor cell lines The POL inhibitors (novobiocin, ART-558, and RP6685) were evaluated both individually and in combination with standard of care and investigational anticancer small molecules within a complex spheroid model of solid tumors. . […]
measured endpoint: viability, T/C (%)
Just the number in %, nothing appended.

Any idea what its viability, T/C is? The compound is C=CC(=O)N1CCN(c2nc(=O)n(-c3c(C)ccnc3C(C)C)c3nc(-c4c(O)cccc4F)c(F)cc23)C(C)C1 (stereo not given) + Cc1cccc(N(C)C(=O)C2C(O)CCN2c2nc(C)cc(C(F)(F)F)c2C#N)c1
91.3

Any idea what its viability, T/C is? The compound is COc1cc(C2c3cc4c(cc3C(OC3OC5COC(C)OC5C(O)C3O)C3COC(=O)C23)OCO4)cc(OC)c1O (stereo not given) + Cc1cccc(N(C)C(=O)C2C(O)CCN2c2nc(C)cc(C(F)(F)F)c2C#N)c1
101

Any idea what its viability, T/C is? The compound is CCc1c2c(nc3ccc(O)cc13)-c1cc3c(c(=O)n1C2)COC(=O)[C@]3(O)CC + Cc1cccc(N(C)C(=O)C2C(O)CCN2c2nc(C)cc(C(F)(F)F)c2C#N)c1
48.6

Any idea what its viability, T/C is? The compound is CNCc1ccc(-c2[nH]c3cc(F)cc4c3c2CCNC4=O)cc1 + COC1C(OC(N)=O)C(O)C(Oc2ccc3c(O)c(NC(=O)c4ccc(O)c(CC=C(C)C)c4)c(=O)oc3c2C)OC1(C)C
105

Any idea what its viability, T/C is? The compound is COc1cccc(OCCCN)c1-c1cc(Nc2cnc(C#N)cn2)n[nH]1 + COC1C(OC(N)=O)C(O)C(Oc2ccc3c(O)c(NC(=O)c4ccc(O)c(CC=C(C)C)c4)c(=O)oc3c2C)OC1(C)C
54.8

Any idea what its viability, T/C is? The compound is O=c1[nH]cc(F)c(=O)[nH]1 + COC1C(OC(N)=O)C(O)C(Oc2ccc3c(O)c(NC(=O)c4ccc(O)c(CC=C(C)C)c4)c(=O)oc3c2C)OC1(C)C
93.2

Any idea what its viability, T/C is? The compound is CC1COCCN1c1cc(C2(O)CC3CCC(C2)O3)c2cnn(-c3ccn[nH]3)c2n1 (stereo not given) + Cc1cccc(N(C)C(=O)C2C(O)CCN2c2nc(C)cc(C(F)(F)F)c2C#N)c1
87.2

Any idea what its viability, T/C is? The compound is CC1COCCN1c1cc(-c2ccnn2C)c2ccnc(-c3ccn[nH]3)c2n1 (stereo not given) + Cc1cccc(N(C)C(=O)C2C(O)CCN2c2nc(C)cc(C(F)(F)F)c2C#N)c1
108

Any idea what its viability, T/C is? The compound is CCc1cc2c(N3CCc4c(cc(Cn5ccnc5)cc4-c4cn(C)nc4C(F)(F)F)C3=O)cc(C)nc2c(OC)n1 + Cc1cccc(N(C)C(=O)C2C(O)CCN2c2nc(C)cc(C(F)(F)F)c2C#N)c1
100

Any idea what its viability, T/C is? The compound is O=C(Nc1ccc(O)c(NS(=O)(=O)c2ccc(F)cc2)c1)c1ccc(-c2ccccc2)cc1 + Nc1ccc(C#CCN(C(=O)Cc2ncc(C(F)(F)F)cc2C(F)(F)F)c2ccc(F)cc2)nn1
103

---

Tested on: 699152-130-R-J1-PDC complex spheroid viability
Experiment: Anticancer human tumor 699152-130-R-J1-PDC cell line growth inhibition [POLQ];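 also: spheroids exposed to agents for 7 days before viability reading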;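 as to viability, T/C: percent of DMSO vehicle control viability so 100% = vehicle and 0% = no viable signal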
Conditions: second compound 0.0316 µM; first compound 0.01 µM; stronger effect = lower value
For each of the compounds below, state its viability, T/C.
Just the number in %, nothing appended.

Any idea what its viability, T/C is? The compound is CC[C@@]1(O)C(=O)OCc2c1cc1n(c2=O)Cc2cc3c(CN(C)C)c(O)ccc3nc2-1 + Cc1cccc(N(C)C(=O)C2C(O)CCN2c2nc(C)cc(C(F)(F)F)c2C#N)c1
90.2

Any idea what its viability, T/C is? The compound is C=CCn1c(=O)c2cnc(Nc3ccc(N4CCN(C)CC4)cc3)nc2n1-c1cccc(C(C)(C)O)n1 + COC1C(OC(N)=O)C(O)C(Oc2ccc3c(O)c(NC(=O)c4ccc(O)c(CC=C(C)C)c4)c(=O)oc3c2C)OC1(C)C
98.2

Any idea what its viability, T/C is? The compound is CC[C@@]1(O)C(=O)OCc2c1cc1n(c2=O)Cc2cc3c(CN(C)C)c(O)ccc3nc2-1 + COC1C(OC(N)=O)C(O)C(Oc2ccc3c(O)c(NC(=O)c4ccc(O)c(CC=C(C)C)c4)c(=O)oc3c2C)OC1(C)C
93.1

Any idea what its viability, T/C is? The compound is Cn1ncnc1[C@H]1c2n[nH]c(=O)c3cc(F)cc(c23)N[C@@H]1c1ccc(F)cc1 + COC1C(OC(N)=O)C(O)C(Oc2ccc3c(O)c(NC(=O)c4ccc(O)c(CC=C(C)C)c4)c(=O)oc3c2C)OC1(C)C
93.4

Any idea what its viability, T/C is? The compound is CCc1c2c(nc3ccc(O)cc13)-c1cc3c(c(=O)n1C2)COC(=O)[C@]3(O)CC + Cc1cccc(N(C)C(=O)C2C(O)CCN2c2nc(C)cc(C(F)(F)F)c2C#N)c1
54.2

Any idea what its viability, T/C is? The compound is Cn1ncnc1[C@H]1c2n[nH]c(=O)c3cc(F)cc(c23)N[C@@H]1c1ccc(F)cc1 + Cc1cccc(N(C)C(=O)C2C(O)CCN2c2nc(C)cc(C(F)(F)F)c2C#N)c1
88.6

Any idea what its viability, T/C is? The compound is COc1cccc(OCCCN)c1-c1cc(Nc2cnc(C#N)cn2)n[nH]1 + COC1C(OC(N)=O)C(O)C(Oc2ccc3c(O)c(NC(=O)c4ccc(O)c(CC=C(C)C)c4)c(=O)oc3c2C)OC1(C)C
91.4

Any idea what its viability, T/C is? The compound is CCc1c2c(nc3ccc(O)cc13)-c1cc3c(c(=O)n1C2)COC(=O)[C@]3(O)CC + COC1C(OC(N)=O)C(O)C(Oc2ccc3c(O)c(NC(=O)c4ccc(O)c(CC=C(C)C)c4)c(=O)oc3c2C)OC1(C)C
51.3

Any idea what its viability, T/C is? The compound is C=CCn1c(=O)c2cnc(Nc3ccc(N4CCN(C)CC4)cc3)nc2n1-c1cccc(C(C)(C)O)n1 + Cc1cccc(N(C)C(=O)C2C(O)CCN2c2nc(C)cc(C(F)(F)F)c2C#N)c1
91

---

System: 699152-130-R-J1-PDC complex spheroid viability
Assay: Anticancer human tumor 699152-130-R-J1-PDC cell line growth inhibition [POLQ];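 also: spheroids exposed to agents for 7 days before viability reading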
Conditions: curve of first compound; second compound 0.0316 µM
For each of the compounds below, state its IC50.

Any idea what its IC50 is? The compound is O=C(Nc1ccc(O)c(NS(=O)(=O)c2ccc(F)cc2)c1)c1ccc(-c2ccccc2)cc1 + Cc1cccc(N(C)C(=O)C2C(O)CCN2c2nc(C)cc(C(F)(F)F)c2C#N)c1
> 10 µM

Any idea what its IC50 is? The compound is CC1COCCN1c1cc(-c2ccnn2C)c2ccnc(-c3ccn[nH]3)c2n1 (stereo unspecified) + Nc1ccc(C#CCN(C(=O)Cc2ncc(C(F)(F)F)cc2C(F)(F)F)c2ccc(F)cc2)nn1
> 10 µM

Any idea what its IC50 is? The compound is C=CCn1c(=O)c2cnc(Nc3ccc(N4CCN(C)CC4)cc3)nc2n1-c1cccc(C(C)(C)O)n1 + COC1C(OC(N)=O)C(O)C(Oc2ccc3c(O)c(NC(=O)c4ccc(O)c(CC=C(C)C)c4)c(=O)oc3c2C)OC1(C)C
> 1 µM

Any idea what its IC50 is? The compound is COc1cc2cc(C(=O)CCC(=O)O)sc2cc1OC + Cc1cccc(N(C)C(=O)C2C(O)CCN2c2nc(C)cc(C(F)(F)F)c2C#N)c1
> 10 µM

Any idea what its IC50 is? The compound is CC(=O)O[C@H]1C(=O)[C@@]2(C)[C@H]([C@H](OC(=O)c3ccccc3)[C@]3(O)C[C@H](OC(=O)[C@H](O)[C@@H](NC(=O)c4ccccc4)c4ccccc4)C(C)=C1C3(C)C)[C@]1(OC(C)=O)CO[C@@H]1C[C@@H]2O + Cc1cccc(N(C)C(=O)C2C(O)CCN2c2nc(C)cc(C(F)(F)F)c2C#N)c1
> 3 µM

Any idea what its IC50 is? The compound is Cn1ncnc1[C@H]1c2n[nH]c(=O)c3cc(F)cc(c23)N[C@@H]1c1ccc(F)cc1 + COC1C(OC(N)=O)C(O)C(Oc2ccc3c(O)c(NC(=O)c4ccc(O)c(CC=C(C)C)c4)c(=O)oc3c2C)OC1(C)C
> 0.1 µM
